Data provenance: PubChem BioAssay (NCI)

System: EKVX NSCLC
ASSAY_COMMENT: NCI-60 one-dose screen, 48 h (100 = growth as untreated, 0 = no growth, -100 = all killed)
CONDITION_NOTES: 10 µM unless noted
The panel holds about 83,000 compounds, 20% with a hit somewhere; the sample as a whole holds those more often. Activity calls are given as the source filed them. How the source made its calls: active means growth percent below 10; inactive means the rest.
READOUT_TYPE: growth

INSERT INTO measurements (compound, result) VALUES
  ('NC(=O)c1cccc(N2Cc3ccccc3OC3=C2C(=O)c2c(O)ccc(O)c2C3=O)c1', '-0.27% (active)'),
  ('O=S=Nc1ccc([N+](=O)[O-])cc1', '96.9% (inactive)'),
  ('COc1cc(C(=O)N2CCN(C(=O)c3ccco3)CC2)c(N)cc1OCc1ccccc1', '94.6% (inactive)'),
  ('COc1ccc(/C(=N/O)c2cc(F)c(F)c(OC)c2F)cc1O', '45.5% (inactive)'),
  ('CC(Cc1nnc(SCC(=O)Nc2ccc(I)cc2)n1N)c1ccccc1 (stereo unspecified)', '82.5% (inactive)'),
  ('COc1ccc(/C=c2\sc3n(c2=O)C2C(NN=3)N(C)C(=O)N2C)cc1 (stereo unspecified)', '56.7% (inactive)');

---

List of growth values.
System: HOP-62 NSCLC
ASSAY_COMMENT: NCI-60 one-dose screen, 48 h (100 = growth as untreated, 0 = no growth, -100 = all killed)
CONDITION_NOTES: 10 µM unless noted
Compounds without any hit were thinned out: in the full panel of roughly 83,000, 20% have a hit.
READOUT_TYPE: growth (%)

INSERT INTO measurements (compound, quantitative_result) VALUES
  ('Cn1cc(C=O)c2ccccc21', 95.9),
  ('OCc1c(-c2ccccc2)nc2sccn12', 95.5),
  ('CC[C@]1(O)C[C@@H]2CN(Cc3c([nH]c4ccccc34)[C@@](C(=O)OC)(c3cc4c(cc3OC)N(C)[C@H]3[C@@](O)(C(=O)OC)[C@H](OC(C)=O)[C@]5(CC)[C@@H]6C[C@@H]6CN6CC[C@]43[C@@H]65)C2)C1', 38.8),
  ('COc1cc2oc(-c3cccc(NC(=O)Nc4ccc5c(c4)OCO5)c3)cc(=O)c2c(OC)c1OC', 63.2),
  ('COc1cc(Cn2c(SCC(=O)Nc3cc(OC)c(OC)c(OC)c3)nc3ccccc3c2=O)cc(OC)c1OC', 42.8),
  ('NS(=O)(=O)c1ccc(NCC(=O)Nc2ccc(-c3nc4ccccc4s3)cc2)cc1', 118),
  ('COc1ccc(C2CC(c3cccs3)=NN2c2ccc(S(=O)(=O)NC(=O)NCc3cccc(OC)c3)cc2)cc1 (stereo unspecified)', 81),
  ('CC1=CNNc2c3ncnc-3ncn21', 95.4),
  ('Nc1cc2c(cc1N)-c1cc(N)c(N)cc1C2', 95.5),
  ('CCC1CCc2nc3sc(C(=O)Nc4ccccc4C)c(N)c3cc2C1 (stereo unspecified)', 54.5),
  ('CCCCNC(=O)NS(=O)(=O)c1ccc(N2N=C(c3ccc(C)cc3C)CC2c2ccc(OC)cc2)cc1 (stereo unspecified)', 92),
  ('COc1cccc(-c2nc3sccn3c2-c2ccnc(NCCNS(=O)(=O)c3ccccc3)n2)c1', 114),
  ('COc1cc2nc(Cl)nc(NCCO)c2cc1OC', 114),
  ('COc1ccc2c(c1)C(=O)/C(=C/c1ccc(O)cc1)O2', 90.8),
  ('CCN(C(=O)c1cc2ccccc2[nH]1)[C@H]1CCC[C@@H](NCc2ccc(OC)cc2)C1', 86.2),
  ('COc1ccc(/C=C/c2cc(N3CCOCC3)c3cc(F)c(F)cc3n2)cc1OC', 63.9);

---

System: SK-MEL-28 melanoma
ASSAY_COMMENT: NCI-60 one-dose screen, 48 h (100 = growth as untreated, 0 = no growth, -100 = all killed)
CONDITION_NOTES: 10 µM unless noted
Compounds without any hit were thinned out: in the full panel of roughly 83,000, 20% have a hit.
READOUT_TYPE: growth (%)

INSERT INTO assay_data (compound, tested_on, readout_type, quantitative_result) VALUES
  ('O=[N+]([O-])c1cccc(-c2cc(-c3cc(Br)ccc3O)[nH]n2)c1', 'SK-MEL-28 melanoma', 'growth', 42.1),
  ('O=c1c2cccc3c(Nc4ccc(F)cc4)ccc(c32)c2nc3ccccc3n12', 'SK-MEL-28 melanoma', 'growth', 103),
  ('CC/C=C\C/C=C\C[C@H]1C/C=C2/C(=O)C=C[C@H]2C/C=C\CCC(=O)O1', 'SK-MEL-28 melanoma', 'growth', -1.61),
  ('CCCCCCCCCCC/C=C\C[C@H](O)C/C=C1/C(=O)C=C[C@@H]1C/C=C\CCCC(=O)OC', 'SK-MEL-28 melanoma', 'growth', -20.4),
  ('COC(=O)c1cc(-c2cccs2)c(C#N)c(N)c1C#N', 'SK-MEL-28 melanoma', 'growth', 114),
  ('COc1cc(NS(C)(=O)=O)ccc1Nc1c2ccc([N+](=O)[O-])cc2nc2c(C)cccc12', 'SK-MEL-28 melanoma', 'growth', 41.7),
  ('COc1ccc(/C(=N/O)c2cc(OC)c(OC)c(OC)c2)c(OC)c1N', 'SK-MEL-28 melanoma', 'growth', 59.2),
  ('CS(=O)(=O)N(c1cc(-c2ccc3ncnc(Nc4cccc(Cl)c4)c3c2)cnc1Cl)S(C)(=O)=O', 'SK-MEL-28 melanoma', 'growth', -6.78),
  ('CCOC(=O)c1ccccc1NC(c1ccccc1)c1ccc2cccnc2c1O (stereo unspecified)', 'SK-MEL-28 melanoma', 'growth', 38.3),
  ('COc1ccc(C2=CC(c3ccc(Oc4ccnc5cc(Cl)ccc45)c(OC)c3)c3c(nc(OC)[nH]c3=O)N2)cc1 (stereo unspecified)', 'SK-MEL-28 melanoma', 'growth', 91.1),
  ('Cc1cccc(NC(=O)c2sc3nc4c(cc3c2N)CCCC4)c1', 'SK-MEL-28 melanoma', 'growth', 53),
  ('COc1ccc(/C=C/c2nc(N3CCOCC3)c3cc(F)c(F)cc3n2)cc1OC', 'SK-MEL-28 melanoma', 'growth', 52.4),
  ('CC/C=C\C[C@H](O)C/C=C1/C(=O)C(Cl)=C[C@@H]1C/C=C\CCCC(=O)OC', 'SK-MEL-28 melanoma', 'growth', -2.03),
  ('O=S(=O)(NCCNc1nccc(-c2c(-c3ccccc3)nc3sccn23)n1)c1ccc(O)cc1', 'SK-MEL-28 melanoma', 'growth', 47.6),
  ('C#CCN1C(=O)/C(=c2\sc3n(c2=O)NC2C(N=3)N(CC)C(=O)N2CC)c2ccccc21 (stereo unspecified)', 'SK-MEL-28 melanoma', 'growth', 57.3),
  ('NS(=O)(=O)c1ccc(NCC(=O)Nc2ccc(-c3nc4ccccc4s3)cc2)cc1', 'SK-MEL-28 melanoma', 'growth', 99.4),
  ('COc1ccccc1OCC(=O)Nc1sc2c(c1C(N)=O)CCC2', 'SK-MEL-28 melanoma', 'growth', 101),
  ('Cc1nc(Nc2cccnc2)sc1C(=O)/C=C/c1ccc(Cl)cc1', 'SK-MEL-28 melanoma', 'growth', 77.8),
  ('CCCCCC/C=C\CCCCCCCCOc1ccc(CCOP(=O)(O)OCC[N+](C)(C)C)cc1', 'SK-MEL-28 melanoma', 'growth', 95.5),
  ('CCn1c(=O)c2c(=O)c3c4c(oc3oc2c2ccccc21)C(=O)c1ccccc1C4=O', 'SK-MEL-28 melanoma', 'growth', 107),
  ('COc1ccc(OC)c(NC(=O)c2cc(S(=O)(=O)N3CCc4ccccc43)ccc2OC)c1', 'SK-MEL-28 melanoma', 'growth', 131),
  ('CSc1ccccc1C#C/C=C\C#Cc1ccccc1N1CCCCC1=O', 'SK-MEL-28 melanoma', 'growth', 153),
  ('COc1ccc(-c2nc3sccn3c2-c2ccnc(NCCCNS(=O)(=O)c3ccc4ccccc4c3)n2)cc1', 'SK-MEL-28 melanoma', 'growth', 80),
  ('O=C(Nc1ccc(F)c(Cl)c1)c1n[nH]c(=O)c2ccccc12', 'SK-MEL-28 melanoma', 'growth', 115),
  ('Nc1cc2c(cc1N)-c1cc(N)c(N)cc1C2', 'SK-MEL-28 melanoma', 'growth', 115),
  ('COc1ccc(-c2cn[nH]c2-c2cc(OC)c3c(c2)OCO3)cc1', 'SK-MEL-28 melanoma', 'growth', 39.4);

---

Tested on: NCI-H322M lung
ASSAY_COMMENT: NCI-60 one-dose screen, 48 h (100 = growth as untreated, 0 = no growth, -100 = all killed)
CONDITION_NOTES: 10 µM unless noted
Compounds without any hit were thinned out: in the full panel of roughly 83,000, 20% have a hit.
List of growth values.
READOUT_TYPE: growth (%)

INSERT INTO measurements (compound, quantitative_result) VALUES
  ('COc1cccc(NC(=O)Cn2cc3c(=O)oc4ccccc4c3n2)c1', 98.9),
  ('COc1cc(CNC(=O)CSc2nc3ccccc3c(=O)n2Cc2cc(OC)c(OC)c(OC)c2)cc(OC)c1OC', 95.4),
  ('COc1ccc(-c2cn[nH]c2-c2cc(OC)c3c(c2)OCO3)cc1', 15),
  ('COc1ccc(/C=C/C(=O)/C=C/c2cc3ccc(Cl)cc3[nH]c2=O)cc1', 97.2),
  ('O=C(Nc1ccc(F)cc1)c1cc([N+](=O)[O-])ccc1O', 64.3),
  ('COc1ccc(/C=C/C(=O)c2ccc(NC(=O)CN3CCN(c4cc5c(cc4F)c(=O)c(C(=O)O)cn5C4CC4)CC3)cc2)cc1', 96.1),
  ('COc1ccc(/C(=N/O)c2cc(OC)c(OC)c(OC)c2)c(OC)c1N', 48.4),
  ('COc1ccc(/C=C/c2cc(N3CCOCC3)c3cc(F)c(F)cc3n2)cc1OC', 30),
  ('C=CCOc1ccc(/C(O)=C2\C(=O)C(=O)N(c3nccs3)C2c2ccccc2F)cc1 (stereo unspecified)', 80),
  ('COc1cc(C(=O)N2CCN(C(=O)c3ccco3)CC2)c(N)cc1OCc1ccccc1', 91.3),
  ('COc1cc(NC(=O)CSc2nc3ccc(C)cc3c(=O)n2-c2ccccc2)cc(OC)c1OC', 101);
